Target: M2 receptors (Rattus norvegicus, UniProt P10980)
Sequence (P10980 1-466): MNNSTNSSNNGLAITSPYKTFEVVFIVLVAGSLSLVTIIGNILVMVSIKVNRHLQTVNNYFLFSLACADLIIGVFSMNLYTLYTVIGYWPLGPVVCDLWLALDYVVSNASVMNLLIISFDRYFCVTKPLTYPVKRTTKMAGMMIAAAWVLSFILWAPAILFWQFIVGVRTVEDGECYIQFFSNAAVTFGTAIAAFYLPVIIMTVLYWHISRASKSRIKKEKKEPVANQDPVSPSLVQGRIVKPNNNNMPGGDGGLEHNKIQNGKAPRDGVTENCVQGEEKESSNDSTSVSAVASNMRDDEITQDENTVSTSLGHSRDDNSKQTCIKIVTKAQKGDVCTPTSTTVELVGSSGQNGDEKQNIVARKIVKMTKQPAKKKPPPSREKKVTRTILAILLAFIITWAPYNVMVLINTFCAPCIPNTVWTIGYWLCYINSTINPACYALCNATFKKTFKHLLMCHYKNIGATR
Assay: biochemical
Type: binding
Details: read-out: IC50 QNB (b) (heart)
assayReadout: IC50 (µM)
Just the number in µM, nothing appended.

Observed IC50, M2 receptors (Rattus norvegicus, UniProt P10980), CN1CCC(Oc2noc3ccc(Cl)cc23)CC1.Cl [Example A1, hydrochloride] : 41

Next, consider the following molecule.
Observed IC50, M2 receptors (Rattus norvegicus, UniProt P10980), CCN1C(=O)CC2(CCN(C)CC2)C1=O : 21

* * *

Target: M2 receptors (Rattus norvegicus, UniProt P10980)
Assay: biochemical
Assay type: binding
Conditions: 3H-quinuclidinyl benzylate 0.12 nM, rat heart membrane, 30° C., 120 minutes; read-out: IC50 QNB (b) (heart)
assayReadout: IC50 (µM)
Just the number in µM, nothing appended.

Observed IC50, M2 receptors (Rattus norvegicus, UniProt P10980), CC1OC2(CS1)CN1CCC2CC1 (stereo not shown) [Example B3] : 14

* * *

Molecular target: M1 receptors (Rattus norvegicus)
Assay: biochemical
Type: binding
assayReadout: IC50 (nM)
Just the number in nM, nothing appended.

Note to self: IC50 recorded for O=C1CCCN1CC#CCN1CCCC1 was 1300

* * *

Biological target: M1 receptors (Rattus norvegicus, UniProt P08482)
Sequence (P08482 1-460): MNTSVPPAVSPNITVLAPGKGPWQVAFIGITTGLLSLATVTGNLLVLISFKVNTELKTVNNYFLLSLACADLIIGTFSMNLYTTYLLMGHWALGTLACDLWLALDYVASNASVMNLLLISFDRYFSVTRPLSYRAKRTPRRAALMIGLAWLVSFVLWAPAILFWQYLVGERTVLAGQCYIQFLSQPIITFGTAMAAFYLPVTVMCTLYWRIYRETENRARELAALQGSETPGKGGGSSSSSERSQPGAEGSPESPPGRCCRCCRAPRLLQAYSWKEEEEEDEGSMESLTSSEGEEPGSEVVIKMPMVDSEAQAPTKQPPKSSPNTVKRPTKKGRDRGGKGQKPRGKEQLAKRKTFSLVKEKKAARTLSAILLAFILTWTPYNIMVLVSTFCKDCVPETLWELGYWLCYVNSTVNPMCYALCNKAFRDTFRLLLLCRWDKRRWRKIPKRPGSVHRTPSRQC
Assay: biochemical
Type: binding
Conditions: 3H-pirenzepine 1 nM, rat cerebral cortex membrane, 30° C., 60 minutes; read-out: IC50 Pirenzp (a) (cerebral cortex)
Recorded IC50 for the following compounds
Just the number in µM, nothing appended.

Note to self: IC50 recorded for CN1CCC(Oc2noc3ccc(Cl)cc23)CC1.Cl [Example A1, hydrochloride] was 1.9

Note to self: IC50 recorded for CCN1C(=O)CC2(CCN(C)CC2)C1=O was 3.1

Next, consider the following compound.
Note to self: IC50 recorded for CC1OC2(CS1)CN1CCC2CC1 (stereo not drawn) was 3.6

* * *

Recorded IC50 for the following compounds
Molecular target: 5-HT3 receptors (Rattus norvegicus)
Sequence (P35563 24-483): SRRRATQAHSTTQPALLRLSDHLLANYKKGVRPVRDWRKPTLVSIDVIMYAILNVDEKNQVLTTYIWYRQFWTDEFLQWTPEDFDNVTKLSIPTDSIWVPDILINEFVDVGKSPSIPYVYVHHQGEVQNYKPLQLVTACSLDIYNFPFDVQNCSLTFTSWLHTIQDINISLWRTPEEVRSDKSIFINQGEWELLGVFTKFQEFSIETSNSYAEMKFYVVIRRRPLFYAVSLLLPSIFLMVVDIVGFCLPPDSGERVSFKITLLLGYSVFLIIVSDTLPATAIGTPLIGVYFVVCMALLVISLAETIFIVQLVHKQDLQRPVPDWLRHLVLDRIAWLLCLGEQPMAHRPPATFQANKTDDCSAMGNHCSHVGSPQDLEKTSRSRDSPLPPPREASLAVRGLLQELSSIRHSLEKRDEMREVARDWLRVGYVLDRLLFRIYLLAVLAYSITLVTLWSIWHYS
Assay: biochemical
Type: binding
Where a name gives a salt, the structure may show the parent alone.
Just the number in nM, nothing appended.

Note to self: IC50 recorded for c1csc(-c2cc(OC3CN4CCC3CC4)no2)c1 (stereo not drawn) [Example A9, hydrochloride] was 150

Note to self: IC50 recorded for Clc1ccc(-c2cc(OC3CN4CCC3CC4)no2)cc1 (stereo not drawn) [Example A7, hydrochloride] was 320

Note to self: IC50 recorded for Cl.Clc1c(OC2CN3CCC2CC3)noc1-c1ccccc1 (stereo not drawn) [Example A5, hydrochloride] was 220
